Tested on: Ser. marcescens 63A001
Recorded measurements of MIC, one per entry
QUANTITY MEASURED: MIC (µg/mL)

compound="CC1(C)S[C@@H]2[C@H](NC(=O)C(NC(=O)CNC(=N)c3ccccc3)c3ccccc3)C(=O)N2[C@H]1C(=O)O (stereo partly shown) [X = H]" number=12.5
compound="CC1(C)S[C@@H]2[C@H](NC(=O)C(NC(=O)CNC(=N)c3ccc(Cl)cc3)c3ccccc3)C(=O)N2[C@H]1C(=O)O (stereo partly shown) [X = Cl]" number=6.25
compound="CC1(C)S[C@@H]2[C@H](NC(=O)C(NC(=O)CNC(=N)c3ccc(F)cc3)c3ccccc3)C(=O)N2[C@H]1C(=O)O (stereo partly shown) [X = F]" number=6.25
compound="CC1(C)S[C@@H]2[C@H](NC(=O)C(NC(=O)CNC(=N)c3ccc(Br)cc3)c3ccccc3)C(=O)N2[C@H]1C(=O)O (stereo partly shown) [X = Br]" number=6.25
